Parameter: MIC of antibiotic in combination with Chlopam. Scope: all listed entries.
Tested on: Staphylococcus aureus (ATCC 29213)
procedure-summary: Checkerboard combination / MIC assay with S. aureus ATCC 29213
Format: cell-based
settings: Chlopam 0.015625 μg/mL; S. aureus ATCC 29213
Hi! Could you send only the number? It should be in µg/mL, unit omitted.

The cases that follow already have their MIC of antibiotic in combination with Chlopam on record.
C/C(=C\C(=O)OCCCCCCCCC(=O)O)C[C@@H]1OC[C@H](C[C@@H]2O[C@H]2[C@@H](C)[C@H](C)O)[C@@H](O)[C@H]1O [Mupirocin] | 0.5
CN[C@H](CC(C)C)C(=O)N[C@H]1C(=O)N[C@@H](CC(N)=O)C(=O)N[C@H]2C(=O)N[C@H]3C(=O)N[C@H](C(=O)N[C@H](C(=O)O)c4cc(O)cc(O)c4-c4cc3ccc4O)[C@H](O)c3ccc(c(Cl)c3)Oc3cc2cc(c3O[C@@H]2O[C@H](CO)[C@@H](O)[C@H](O)[C@H]2O[C@H]2C[C@](C)(N)[C@H](O)[C@H](C)O2)Oc2ccc(cc2Cl)[C@H]1O [Vancomycin] | 1
CO/N=C(\C(=O)N[C@@H]1C(=O)N2C(C(=O)[O-])=C(C[N+]3(C)CCCC3)CS[C@H]12)c1csc(N)n1 [Cefepime] | 4
CCCCCCCCCC(=O)N[C@@H](Cc1c[nH]c2ccccc12)C(=O)N[C@H](CC(N)=O)C(=O)N[C@@H](CC(=O)O)C(=O)N[C@@H]1C(=O)NCC(=O)N[C@@H](CCCN)C(=O)N[C@@H](CC(=O)O)C(=O)N[C@H](C)C(=O)N[C@@H](CC(=O)O)C(=O)NCC(=O)N[C@H](CO)C(=O)N[C@@H]([C@H](C)CC(=O)O)C(=O)N[C@@H](CC(=O)c2ccccc2N)C(=O)O[C@@H]1C [Daptomycin] | 0.5

Fill in the blank: the reported MIC of antibiotic in combination with Chlopam of CC(=O)NC[C@H]1CN(c2ccc(N3CCOCC3)c(F)c2)C(=O)O1 [Linezolid] is ____. 2

And then Cc1onc(-c2ccccc2)c1C(=O)N[C@@H]1C(=O)N2[C@@H]1SC(C)(C)[C@@H]2C(=O)O [Oxacillin] , what is it? 0.5
